Data provenance: paper PMC2864300

Biological target: T1, mouse NOXO1 SH3AB–E (tandem SH3 domains plus the C-terminal portion of NOXO1) (mouse, UniProt Q8VCM2 160-349)
T1 construct: mouse NOXO1, tandem SH3 domains plus the C-terminal portion; source: E. coli BL21 STAR, purified (glutathione Sepharose, PreScission cleavage, Superdex 75)
T1 sequence (looked up): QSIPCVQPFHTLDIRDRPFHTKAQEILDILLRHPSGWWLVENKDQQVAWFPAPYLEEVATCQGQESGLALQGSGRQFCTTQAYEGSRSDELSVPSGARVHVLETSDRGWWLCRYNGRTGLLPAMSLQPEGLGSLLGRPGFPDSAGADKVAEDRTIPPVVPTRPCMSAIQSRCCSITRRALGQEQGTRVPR
Experiment: ITC; MicroCal VP-ITC, 18°C; 150 mM NaCl, 1 mM DTT, 50 mM HEPES pH 7.4; typically 20–40 µM protein in the cell, 200–300 µM ligand injected; single-site binding model; averaged over three to five experiments
Conditions: both partners purified
pKd: −log10 of the molar value.
recorded.endpoint: pKd

binder	endpoint.value
mouse NOXA1 SH3 domain (domain or fragment, UniProt Q8CJ00 369-428, looked up, mouse NOXA1, carboxy-terminal SH3 domain; source: E. coli BL21 STAR, purified (glutathione Sepharose, PreScission cleavage, Superdex 75)) PVLYQVVAQYNYRAQRPEDLDFHQGDTVDVLCEVDEAWLEGHRDGCVGIFPKCFVVPAGA	5.66
